Target: FV-810 (Homo sapiens, UniProt P12259, DEL839-1519)
Construct: amino acids 1-28 are a signal peptide that is cleaved and numbering begins at residue 29; made in house
Sequence (P12259 with tags, fused parts or gaps DEL839-1519): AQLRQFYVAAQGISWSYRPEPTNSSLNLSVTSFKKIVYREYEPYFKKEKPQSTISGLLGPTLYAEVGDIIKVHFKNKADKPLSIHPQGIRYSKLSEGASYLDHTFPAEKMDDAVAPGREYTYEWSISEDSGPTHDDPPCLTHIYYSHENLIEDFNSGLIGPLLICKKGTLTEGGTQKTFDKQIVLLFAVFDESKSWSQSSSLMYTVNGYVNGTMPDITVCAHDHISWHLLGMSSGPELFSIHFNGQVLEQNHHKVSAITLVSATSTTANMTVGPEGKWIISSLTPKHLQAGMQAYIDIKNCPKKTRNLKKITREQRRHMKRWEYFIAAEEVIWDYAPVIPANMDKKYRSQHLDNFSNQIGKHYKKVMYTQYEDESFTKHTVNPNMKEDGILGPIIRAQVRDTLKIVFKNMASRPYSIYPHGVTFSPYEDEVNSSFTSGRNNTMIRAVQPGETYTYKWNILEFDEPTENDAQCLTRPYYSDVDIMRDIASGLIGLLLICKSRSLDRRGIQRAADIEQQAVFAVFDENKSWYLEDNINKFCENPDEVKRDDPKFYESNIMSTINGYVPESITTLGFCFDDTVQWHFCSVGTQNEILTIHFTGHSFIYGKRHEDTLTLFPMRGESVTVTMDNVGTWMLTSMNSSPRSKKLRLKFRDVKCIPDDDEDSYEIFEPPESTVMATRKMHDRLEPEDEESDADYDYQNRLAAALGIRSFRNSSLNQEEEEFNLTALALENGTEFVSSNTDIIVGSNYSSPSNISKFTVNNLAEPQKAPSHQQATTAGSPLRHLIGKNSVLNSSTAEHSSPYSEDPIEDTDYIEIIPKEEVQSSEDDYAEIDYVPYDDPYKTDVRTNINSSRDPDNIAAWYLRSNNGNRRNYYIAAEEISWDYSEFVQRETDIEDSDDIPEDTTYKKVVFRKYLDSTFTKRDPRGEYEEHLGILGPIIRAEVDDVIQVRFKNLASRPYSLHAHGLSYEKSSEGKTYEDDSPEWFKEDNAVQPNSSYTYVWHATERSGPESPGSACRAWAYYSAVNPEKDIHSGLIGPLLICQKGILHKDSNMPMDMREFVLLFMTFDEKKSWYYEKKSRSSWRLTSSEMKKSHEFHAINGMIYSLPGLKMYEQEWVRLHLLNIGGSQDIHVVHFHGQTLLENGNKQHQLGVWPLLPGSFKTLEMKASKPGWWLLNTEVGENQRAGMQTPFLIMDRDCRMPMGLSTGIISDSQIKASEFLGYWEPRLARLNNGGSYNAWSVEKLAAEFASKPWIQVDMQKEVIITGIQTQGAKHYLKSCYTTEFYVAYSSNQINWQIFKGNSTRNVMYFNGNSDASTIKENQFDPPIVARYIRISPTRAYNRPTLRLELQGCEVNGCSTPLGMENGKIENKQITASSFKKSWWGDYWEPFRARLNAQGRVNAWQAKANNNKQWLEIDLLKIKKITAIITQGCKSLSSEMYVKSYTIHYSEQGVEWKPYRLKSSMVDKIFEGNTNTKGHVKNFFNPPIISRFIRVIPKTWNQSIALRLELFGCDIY
Experiment: Fluorescence anisotropy, direct binding of OG488-BR to FV-810
Conditions: FV-810 pretreated with buffer; 30 nM OG488-BR, 50 μM PCPS; assuming n=1
* marks the point of attachment. X1 = O=C1OC2(c3cc(F)c(O)cc3Oc3cc(O)c(F)cc32)c2ccc(N3C(=O)CC(*)C3=O)cc21
Observable: Kd (nM)
Respond with the bare value in nM.

Input H-C(X1)SRAWGESTPLANKPGKQSGHPKFPRVRHKSLQVRQDGGKSRLKKSQFLIKTRKKKKEK-OH [OG488-BR] . Output Kd: 2.1

---

For each record, write down the corresponding pKd.
Biological target: FV-810 (Homo sapiens, UniProt P12259, DEL839-1519)
Construct: amino acids 1-28 are a signal peptide that is cleaved and numbering begins at residue 29; made in house
Experiment: Displacement of OG488-BR from preformed OG488-BR/FV-810 complex (fluorescence anisotropy)
Assay type: binding
Conditions: 30 nM OG488-BR, 20 nM FV-810, 50 μM PCPS, 25° C.; assuming stoichiometry of 1 mol of FV-810/mol of BR peptide
Ends that are not written are not given here.
# pKd = -log10(concentration in molar units)

Input SRAWGESTPLANKPGKQSGHPKFPRVRHKSLQVRQDGGKSRLKKSQFLIKTRKKKKEK [FVBR] . Output pKd: 8.66

Input bovine BR: Bos taurus FV basic region Ser938-Lys996 (SRTWGENIPFKNSHGKQSGHPTFLVTRRKPLQDRQDRRNSRLKEGLPLIRTRRKKKEEK) . Output pKd: 7.55

---

Target: FV-810 (Homo sapiens, UniProt P12259, DEL839-1519)
Construct: amino acids 1-28 are a signal peptide that is cleaved and numbering begins at residue 29; made in house
Assay: Fluorescence anisotropy, direct binding of OG488-BR to FV-810
Settings: FV-810 titrated into 20 or 40 nM OG488-BR, 50 μM PCPS, 25° C.
* marks the point of attachment. X1 = O=C1OC2(c3cc(F)c(O)cc3Oc3cc(O)c(F)cc32)c2ccc(N3C(=O)CC(*)C3=O)cc21
Observable: Kd (nM)
Respond with the bare value in nM.

Input H-C(X1)SRAWGESTPLANKPGKQSGHPKFPRVRHKSLQVRQDGGKSRLKKSQFLIKTRKKKKEK-OH [OG488-BR] . Output Kd: 2.07
